Reference for the values: a melting point compilation (Tetko et al.; mined from patent text by program, amines drawn as free bases though some values may be those of a salt)

Reported melting point values for the following compounds.

[
  {
    "Compound": "CCCCCCCCCCCCCCCCCCOCC(O)COC(c1ccccc1)(c1ccccc1)c1ccccc1 (stereo not drawn)",
    "melting point": "53 to 55 °C"
  },
  {
    "Compound": "CSc1nnc(-c2cc3c([nH]c2=O)CCN(Cc2ccccc2)C3)o1",
    "melting point": "215 to 217 °C"
  },
  {
    "Compound": "COc1cc2cnc(Cl)nc2cc1OC",
    "melting point": "237 to 238 °C"
  }
]

* * *

Reported melting point values for the following molecules.

[
  {
    "Molecule": "CCOC(=O)C(SC)c1ccccc1NC (stereo not drawn)",
    "melting point": "87.5 to 88.5 °C"
  },
  {
    "Molecule": "CCCCNC(=O)c1cnc2cccc(C)n2c1=O",
    "melting point": "127 to 130 °C"
  },
  {
    "Molecule": "CCc1cc(=O)c2cc(C(C)CO)ccc2o1 (stereo not drawn)",
    "melting point": "59.5 to 60.5 °C"
  },
  {
    "Molecule": "O=C1C(Br)CCN1c1cccc(C(F)(F)F)c1 (stereo not drawn)",
    "melting point": "79 to 83 °C"
  },
  {
    "Molecule": "CN(C)S(=O)(=O)c1cn(C)c2cc(Cl)ccc2c1=O",
    "melting point": "207 to 209 °C"
  },
  {
    "Molecule": "CN=C(NC#N)N1CCc2nc(N)sc2C1",
    "melting point": "231 to 234 °C"
  },
  {
    "Molecule": "CCc1cn(C2CC(O)C(CN=[N+]=[N-])O2)c(=O)[nH]c1=O (stereo not drawn)",
    "melting point": "174 to 177 °C"
  },
  {
    "Molecule": "CC(=O)NC[C@H]1CN(c2cc(F)c(N3CCC(n4cccc4)CC3)c(F)c2)C(=O)O1",
    "melting point": "186 to 188 °C"
  },
  {
    "Molecule": "COc1cc2c(cc1OC)CCNCC2",
    "melting point": "86 to 89 °C"
  },
  {
    "Molecule": "c1ccc(-c2ccc(OCC3CO3)cc2)cc1 (stereo not drawn)",
    "melting point": "80.2 to 82.9 °C"
  },
  {
    "Molecule": "NC(=O)c1sc2nccc(N3CCCN(c4ccc(Cl)nn4)CC3)c2c1N",
    "melting point": "232 to 234 °C"
  },
  {
    "Molecule": "CC(=O)Oc1c(C2CCN(CCCCNC(=O)c3ccc(-c4ccc(C#N)cc4)cc3)CC2)ccc2c1CCCC2",
    "melting point": "140 to 150 °C"
  },
  {
    "Molecule": "CN(C)CC1CCCCN1C1c2ccccc2Oc2ccccc21 (stereo not drawn)",
    "melting point": "81 to 83 °C"
  },
  {
    "Molecule": "COc1ccc(C(=O)c2cccc3c2CCC3C(N)=O)cc1 (stereo not drawn)",
    "melting point": "164 to 166 °C"
  },
  {
    "Molecule": "Cn1ncc2c(c1=O)SCCNC2Cc1ccccc1 (stereo not drawn)",
    "melting point": "108 to 109 °C"
  },
  {
    "Molecule": "[N-]=[N+]=Nc1ccc(S(=O)(=O)NCCCCCC(=O)O)cc1",
    "melting point": "126 to 127 °C"
  },
  {
    "Molecule": "CNCNc1cc(C(N)=O)ccc1C(C)(C)C",
    "melting point": "143 to 144 °C"
  },
  {
    "Molecule": "CC(C)(C)OC(=O)NCCNC(=O)c1ncccc1Br",
    "melting point": "125 to 130 °C"
  }
]
